Biological target: PCAF-Nluc (Homo sapiens)
Construct: two constructs of full-length PCAF containing either N- or C-terminal Nluc
Sequence (Q92831 whole entry): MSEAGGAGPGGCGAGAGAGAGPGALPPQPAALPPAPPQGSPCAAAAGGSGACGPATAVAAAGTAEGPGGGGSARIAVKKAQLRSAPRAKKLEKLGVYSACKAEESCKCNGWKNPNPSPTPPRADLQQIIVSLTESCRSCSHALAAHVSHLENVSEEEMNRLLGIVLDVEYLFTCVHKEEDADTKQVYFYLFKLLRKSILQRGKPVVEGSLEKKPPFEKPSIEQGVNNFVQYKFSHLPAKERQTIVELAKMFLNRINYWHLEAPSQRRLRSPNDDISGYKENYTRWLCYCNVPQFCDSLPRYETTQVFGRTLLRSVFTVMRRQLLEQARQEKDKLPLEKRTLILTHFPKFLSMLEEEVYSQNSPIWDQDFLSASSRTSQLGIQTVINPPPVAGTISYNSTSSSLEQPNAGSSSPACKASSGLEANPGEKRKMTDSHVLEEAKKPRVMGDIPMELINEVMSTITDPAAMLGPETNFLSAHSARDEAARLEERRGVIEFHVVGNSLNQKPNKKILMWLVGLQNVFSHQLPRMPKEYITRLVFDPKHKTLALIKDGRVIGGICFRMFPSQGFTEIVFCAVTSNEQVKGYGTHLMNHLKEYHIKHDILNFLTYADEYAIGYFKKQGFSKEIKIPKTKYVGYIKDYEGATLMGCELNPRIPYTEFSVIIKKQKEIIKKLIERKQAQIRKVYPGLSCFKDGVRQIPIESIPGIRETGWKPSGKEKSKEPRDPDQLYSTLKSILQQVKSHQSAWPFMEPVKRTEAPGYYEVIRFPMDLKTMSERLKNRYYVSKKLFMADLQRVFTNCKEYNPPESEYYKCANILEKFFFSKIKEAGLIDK
Assay: Competition NanoBRET on full-length PCAF-Nluc with MS-1 in HEK293T cells
Settings: PCAF-Nluc, 1 μM MS-1, n=2; read-out: BRET EC50
ENDPOINT_NAME: EC50
Field note: include the unit after the figure.

Request: Sample Cc1nnc2c3ccccc3c(N[C@@H](C)[C@H](c3ccccc3)N(C)C)nn12 [L-Moses, reference compound] — what was its EC50?
Response: 280 nM

###

Target: UniProt Q12830
Test: Competition NanoBRET target engagement, inhibitors vs MS-1 tracer on BPTF-BRD-Nluc in HEK293T cells
Conditions: BRET EC50, BPTF-BRD-Nluc, 0.5 μM MS-1, HEK293T cells, n=2
pEC50: −log10 of the molar value.
Binary call on pEC50: true from 6 upward, false beneath that.

| CHEMICAL_STRING | CLASS_ASSIGNMENT |
| --- | --- |
| CN1CCc2ccc(Nc3cnn(C)c(=O)c3Cl)cc2C1 | false |
| CN(C)CCCn1ccc2cc(-c3nc(S(C)(=O)=O)nc4[nH]ccc34)ccc21 | true |
| COc1cc(-c2cn(C)c(=O)c(C)c2C)ccc1C1(N2CCN(C)CC2)CC1 | true |

// next entry
Request: Confirm if pEC50 reported for the compound Cc1c(Nc2ccc(S(=O)(=O)N3CCN(C)CC3)cc2F)nc2ccc(-c3cnn(C4CC4)c3)cn2c1=O is 6 or above.
Response: true

###

Biological target: BPTF-BRD (Homo sapiens, UniProt Q12830)
Examples of compounds with documented IC50 follow.
Number only, in nM; omit the unit.

See these solved cases before continuing.
| CHEMICAL_STRING | IC50 / nM |
| --- | --- |
| CN1CCc2cc(Nc3ncn(C)c(=O)c3Cl)ccc2C1 | 660 |
| CN1CCc2cc(Nc3cnn(C)c(=O)c3Cl)ccc2C1 | 260 |

Note: attention shifts to another entry.
Request: Sample CN1CCc2ccc(Nc3cnn(C)c(=O)c3Cl)cc2C1 — what was its IC50?
Response: 2100

###

Target: GCN5-Nluc (Homo sapiens)
Construct: The C-terminal full-length GCN5-Nluc construct was titrated against MS-1
Sequence (Q92830 whole entry): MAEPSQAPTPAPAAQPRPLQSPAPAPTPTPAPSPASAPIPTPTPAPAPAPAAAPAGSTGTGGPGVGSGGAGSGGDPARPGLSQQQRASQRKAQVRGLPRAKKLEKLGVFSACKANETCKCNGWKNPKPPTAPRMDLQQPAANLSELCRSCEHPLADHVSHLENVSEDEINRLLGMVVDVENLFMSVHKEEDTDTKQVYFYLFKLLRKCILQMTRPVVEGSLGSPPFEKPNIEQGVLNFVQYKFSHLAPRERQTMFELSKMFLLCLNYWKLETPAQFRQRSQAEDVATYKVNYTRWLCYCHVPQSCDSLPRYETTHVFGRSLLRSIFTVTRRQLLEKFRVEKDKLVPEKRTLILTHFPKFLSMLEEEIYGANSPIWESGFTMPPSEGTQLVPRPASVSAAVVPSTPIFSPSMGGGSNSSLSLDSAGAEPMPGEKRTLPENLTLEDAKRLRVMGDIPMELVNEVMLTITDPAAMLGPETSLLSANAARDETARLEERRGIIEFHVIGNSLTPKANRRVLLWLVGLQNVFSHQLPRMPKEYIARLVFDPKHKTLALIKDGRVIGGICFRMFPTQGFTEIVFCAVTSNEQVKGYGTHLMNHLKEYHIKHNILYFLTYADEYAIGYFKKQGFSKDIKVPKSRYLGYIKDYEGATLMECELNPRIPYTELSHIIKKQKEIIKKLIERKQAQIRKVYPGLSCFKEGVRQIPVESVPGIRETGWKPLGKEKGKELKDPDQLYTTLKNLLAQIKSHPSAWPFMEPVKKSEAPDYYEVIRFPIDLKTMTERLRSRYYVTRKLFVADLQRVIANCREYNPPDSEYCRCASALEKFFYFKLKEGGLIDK
Assay: Competition NanoBRET on full-length GCN5-Nluc with MS-1 in HEK293T cells
Details: GCN5-Nluc, 1 μM MS-1, n=2; read-out: BRET EC50
ENDPOINT_NAME: EC50
Field note: include the unit after the figure.

Request: Sample Cc1nnc2c3ccccc3c(N[C@@H](C)[C@H](c3ccccc3)N(C)C)nn12 [L-Moses, reference compound] — what was its EC50?
Response: 0.5 µM

###

Biological target: BPTF-BRD (Homo sapiens)
Experiment: Kinetic NanoBRET measurement of tracer kon, koff and Kd with the BPTF-BRD
Format: cell-based
Conditions: measured kinetically, calculated from kon and koff
ENDPOINT_NAME: Kd (nM)
Number only, in nM; omit the unit.

Request: Sample Cn1ncc(Nc2ccc3c(c2)CCN(CCCCNC(=O)CCc2ccc4n2[B-](F)(F)[N+]2=C(c5ccc[nH]5)C=CC2=C4)C3)c(Cl)c1=O — what was its Kd?
Response: 1100

###

Target: BPTF-BRD-Nluc (Homo sapiens, UniProt Q12830)
Assay: Competition NanoBRET target engagement, inhibitors vs MS-1 tracer on BPTF-BRD-Nluc in HEK293T cells
Conditions: EC50, printed [BI-7190]: 2 μM (MS-1 concentration per legend), n=3
ENDPOINT_NAME: EC50 (nM)
Number only, in nM; omit the unit.

Request: GET /values?readout=EC50&system=BPTF-BRD-Nluc (Homo sapiens, UniProt Q12830)&item= COc1cc(-c2cn(C)c(=O)c(C)c2C)ccc1C1(N2CCN(C)CC2)CC1 [BI-7190]
Response: 200

###

Target: BPTF-BRD-Nluc (Homo sapiens, UniProt Q12830)
Assay: Competition NanoBRET target engagement, inhibitors vs MS-1 tracer on BPTF-BRD-Nluc in HEK293T cells
Settings: EC50, printed [BI-7190]: 1 μM (MS-1 concentration per legend), n=3
ENDPOINT_NAME: EC50 (nM)
Number only, in nM; omit the unit.

Request: Sample COc1cc(-c2cn(C)c(=O)c(C)c2C)ccc1C1(N2CCN(C)CC2)CC1 — what was its EC50?
Response: 160

###

Biological target: UniProtKB Q12830
Assay: NanoBRET tracer titration against BPTF-BRD-Nluc in HEK293T cells
Format: cell-based
Conditions: tracer titrated against BPTF-BRD-Nluc, HEK293T cells, n=2
ENDPOINT_NAME: EC50 (µM)
Number only, in µM; omit the unit.

See these solved cases before continuing.
| CHEMICAL_STRING | EC50 [µM] |
| --- | --- |
| Cn1ncc(Nc2ccc3c(c2)CCN(CCCCNC(=O)CCc2ccc4n2[B-](F)(F)[N+]2=C(c5ccc[nH]5)C=CC2=C4)C3)c(Cl)c1=O | 0.6 |
| Cn1ncc(Nc2ccc3c(c2)CCN(CCCCNC(=O)CCCNC(=O)CCc2ccc4n2[B-](F)(F)[N+]2=C(c5ccc[nH]5)C=CC2=C4)C3)c(Cl)c1=O | 3.3 |

Note: attention shifts to another entry.
Request: Sample Cn1ncc(Nc2ccc3c(c2)CCN(CCCCNC(=O)CCOCCOCCOCCOCCNC(=O)CCc2ccc4n2[B-](F)(F)[N+]2=C(c5ccc[nH]5)C=CC2=C4)C3)c(Cl)c1=O — what was its EC50?
Response: 3.7

###

Test: Caco-2 cell-based permeability assay
Format: in vitro ADME
Conditions: human, Caco-2, pH 7.4, 2 h at 37 °C
ENDPOINT_NAME: Papp at 2 h, 10 μmol/L (×10⁻⁶ cm/s)
Number only, in ×10⁻⁶ cm/s; omit the unit.

| COMPOUND | TEST_RESULT |
| --- | --- |
| CN1CCc2cc(Nc3ncn(C)c(=O)c3Cl)ccc2C1 [compound 5] | 70 |

Request: Sample CN1CCc2cc(Nc3cnn(C)c(=O)c3Cl)ccc2C1 [compound 4] — what was its Papp at 2 h, 10 μmol/L?
Response: 47

###

Target: BPTF-BRD-Nluc (Homo sapiens, UniProt Q12830)
Assay: Competition NanoBRET target engagement, inhibitors vs MS-1 tracer on BPTF-BRD-Nluc in HEK293T cells
Details: EC50, printed [BI-7190]: 0.25 μM (MS-1 concentration per legend), n=3
ENDPOINT_NAME: pEC50
Keep in mind that pEC50 stands for -log10 of concentration in molar terms.

Request: Sample COc1cc(-c2cn(C)c(=O)c(C)c2C)ccc1C1(N2CCN(C)CC2)CC1 — what was its pEC50?
Response: 7.15

###

Target: Nluc-CECR2 (Homo sapiens)
Construct: MS-1 was titrated against the N-terminal full length Nluc-CECR2
Sequence (Q9BXF3 whole entry): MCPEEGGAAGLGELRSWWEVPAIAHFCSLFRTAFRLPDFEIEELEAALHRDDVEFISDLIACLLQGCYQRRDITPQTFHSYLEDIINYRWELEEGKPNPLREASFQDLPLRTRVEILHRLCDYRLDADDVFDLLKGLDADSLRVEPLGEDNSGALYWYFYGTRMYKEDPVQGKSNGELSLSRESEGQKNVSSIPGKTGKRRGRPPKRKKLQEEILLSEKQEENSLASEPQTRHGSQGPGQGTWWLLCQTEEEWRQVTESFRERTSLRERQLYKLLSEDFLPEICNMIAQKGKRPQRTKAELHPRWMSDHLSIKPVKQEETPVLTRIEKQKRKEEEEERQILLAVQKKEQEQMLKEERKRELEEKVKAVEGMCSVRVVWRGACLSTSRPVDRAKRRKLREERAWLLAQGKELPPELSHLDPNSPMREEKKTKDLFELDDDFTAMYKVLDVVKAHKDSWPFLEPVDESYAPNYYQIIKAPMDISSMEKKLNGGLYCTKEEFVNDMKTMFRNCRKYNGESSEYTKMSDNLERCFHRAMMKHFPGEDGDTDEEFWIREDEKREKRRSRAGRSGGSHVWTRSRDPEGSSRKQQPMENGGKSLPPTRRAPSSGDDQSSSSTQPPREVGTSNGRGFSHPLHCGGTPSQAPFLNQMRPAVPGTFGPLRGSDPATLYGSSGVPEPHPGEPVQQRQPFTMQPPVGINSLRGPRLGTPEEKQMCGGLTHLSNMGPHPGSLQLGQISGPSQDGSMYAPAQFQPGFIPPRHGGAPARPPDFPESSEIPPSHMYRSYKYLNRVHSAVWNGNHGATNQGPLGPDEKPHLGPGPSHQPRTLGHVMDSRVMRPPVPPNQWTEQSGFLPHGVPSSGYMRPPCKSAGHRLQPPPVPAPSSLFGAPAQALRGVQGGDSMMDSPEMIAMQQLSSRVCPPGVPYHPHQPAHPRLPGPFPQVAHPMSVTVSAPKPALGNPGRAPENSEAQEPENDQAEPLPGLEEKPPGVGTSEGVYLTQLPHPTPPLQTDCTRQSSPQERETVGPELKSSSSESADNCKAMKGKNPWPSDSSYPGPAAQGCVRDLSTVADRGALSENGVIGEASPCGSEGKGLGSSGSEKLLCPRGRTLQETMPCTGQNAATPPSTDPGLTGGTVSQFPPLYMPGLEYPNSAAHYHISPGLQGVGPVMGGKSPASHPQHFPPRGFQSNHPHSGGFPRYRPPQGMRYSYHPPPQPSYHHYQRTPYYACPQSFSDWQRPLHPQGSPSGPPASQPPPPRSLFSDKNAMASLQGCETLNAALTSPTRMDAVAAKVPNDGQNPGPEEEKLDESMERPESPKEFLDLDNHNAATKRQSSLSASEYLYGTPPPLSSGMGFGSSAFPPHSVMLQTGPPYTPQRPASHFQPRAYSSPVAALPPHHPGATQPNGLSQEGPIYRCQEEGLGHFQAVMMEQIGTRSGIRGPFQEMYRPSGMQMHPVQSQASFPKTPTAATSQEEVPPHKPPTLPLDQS
Experiment: Competition NanoBRET on full-length Nluc-CECR2 with MS-1 in HEK293T cells
Settings: Nluc-CECR2, n=2; MS-1 1 μM in text and SI, 0.5 μM in Figure 6 legend; read-out: BRET EC50
ENDPOINT_NAME: pEC50
Keep in mind that pEC50 stands for -log10 of concentration in molar terms.

Request: Sample CN(C)CCCOc1ccc(-c2cc(NCCCn3cccn3)nc(S(C)(=O)=O)n2)cc1 [TP-238] — what was its pEC50?
Response: 6.21

###

Target: UniProtKB Q12830
Test: Competition NanoBRET target engagement, inhibitors vs MS-1 tracer on BPTF-BRD-Nluc in HEK293T cells
Details: EC50, printed [BI-7190]: 0.5 μM (MS-1 concentration per legend), n=3
ENDPOINT_NAME: pEC50
Keep in mind that pEC50 stands for -log10 of concentration in molar terms.

Request: GET /values?readout=pEC50&system=UniProtKB Q12830&item= COc1cc(-c2cn(C)c(=O)c(C)c2C)ccc1C1(N2CCN(C)CC2)CC1
Response: 7.00

###

Biological target: BPTF-BRD-Nluc (Homo sapiens)
Assay: Competition NanoBRET target engagement, inhibitors vs MS-1 tracer on BPTF-BRD-Nluc in HEK293T cells
Conditions: BRET EC50, BPTF-BRD-Nluc, 0.5 μM MS-1, HEK293T cells, n=2
ENDPOINT_NAME: pEC50
Keep in mind that pEC50 stands for -log10 of concentration in molar terms.

| COMPOUND | TEST_RESULT |
| --- | --- |
| CN1CCc2cc(Nc3ncn(C)c(=O)c3Cl)ccc2C1 [compound 5] | 5.85 |
| CN1CCc2cc(Nc3cnn(C)c(=O)c3Cl)ccc2C1 [compound 4] | 6.05 |

Note: attention shifts to another entry.
Request: Sample CN(C)CCCOc1ccc(-c2cc(NCCCn3cccn3)nc(S(C)(=O)=O)n2)cc1 [TP-238] — what was its pEC50?
Response: 5.92
